Recorded EC50 values for a group of compounds are listed next.
- targetOrTestSystem: hS1P1 (Homo sapiens, UniProt P21453)
- Sequence (P21453 whole entry): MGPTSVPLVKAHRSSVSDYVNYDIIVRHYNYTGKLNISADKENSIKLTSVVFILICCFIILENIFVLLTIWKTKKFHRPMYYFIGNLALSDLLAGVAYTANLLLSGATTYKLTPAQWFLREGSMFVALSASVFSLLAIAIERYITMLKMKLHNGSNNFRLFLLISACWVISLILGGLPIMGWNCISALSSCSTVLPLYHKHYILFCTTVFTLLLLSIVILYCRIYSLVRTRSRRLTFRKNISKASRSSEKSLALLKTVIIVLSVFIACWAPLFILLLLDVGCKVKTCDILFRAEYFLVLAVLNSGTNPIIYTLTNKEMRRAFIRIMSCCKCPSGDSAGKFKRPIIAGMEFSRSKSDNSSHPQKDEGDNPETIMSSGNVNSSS
- protocolSummary: S1P1 GTPgS binding assay
- assayContext: S1P1 GTPgS binding; EC50 [95% confidence interval] (n)
Kindly provide the numeric value in nM only, without the unit symbol.

- compound: "CC(C)Cc1ccc(-c2nc(-c3ccc(CN4CC(C(=O)O)C4)c(F)c3)no2)cc1"
  quantityUnit: "nM"
  EC50: 1.8

Now look at this entry.
Consider the compound CCCCCCCCCCCCC/C=C/[C@@H](O)[C@@H](N)COP(=O)(O)O [Compound S1P, sphingosine-1-phosphate] and give its measured EC50.
77
